The values you see were collected from patent US20240247072A1.

Target: T1, recombinant trimeric protein of human CD70 extracellular region (human CD70 mIgG Fc (knob) / mouse IgG Fc … (human, UniProt P01863 98-330 = IgG part))
T1 construct: The ELISA and Octet texts say only 'recombinant CD70 protein' / 'CM352 antigen'; also called recombinant human CD70 protein; recombinant CD70 protein
T1 chain 1: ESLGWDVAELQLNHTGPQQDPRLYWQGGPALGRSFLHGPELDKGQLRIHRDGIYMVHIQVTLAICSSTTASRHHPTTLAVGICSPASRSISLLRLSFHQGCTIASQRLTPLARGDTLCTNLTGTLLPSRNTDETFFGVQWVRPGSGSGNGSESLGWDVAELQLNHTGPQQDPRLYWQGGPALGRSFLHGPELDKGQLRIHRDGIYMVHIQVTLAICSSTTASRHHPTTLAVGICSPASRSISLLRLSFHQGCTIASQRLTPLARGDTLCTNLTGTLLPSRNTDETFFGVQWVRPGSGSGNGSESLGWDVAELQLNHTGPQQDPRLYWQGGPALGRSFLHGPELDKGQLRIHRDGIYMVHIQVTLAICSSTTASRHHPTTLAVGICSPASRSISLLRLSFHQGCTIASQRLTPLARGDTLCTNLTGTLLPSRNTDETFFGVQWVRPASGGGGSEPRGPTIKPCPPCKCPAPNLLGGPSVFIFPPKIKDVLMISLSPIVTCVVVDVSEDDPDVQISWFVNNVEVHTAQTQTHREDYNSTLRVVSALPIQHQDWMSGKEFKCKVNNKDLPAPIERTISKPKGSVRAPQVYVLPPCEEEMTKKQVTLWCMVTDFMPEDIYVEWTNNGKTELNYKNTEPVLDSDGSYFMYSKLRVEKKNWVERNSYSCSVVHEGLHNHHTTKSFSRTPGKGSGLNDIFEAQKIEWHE
T1 chain 2: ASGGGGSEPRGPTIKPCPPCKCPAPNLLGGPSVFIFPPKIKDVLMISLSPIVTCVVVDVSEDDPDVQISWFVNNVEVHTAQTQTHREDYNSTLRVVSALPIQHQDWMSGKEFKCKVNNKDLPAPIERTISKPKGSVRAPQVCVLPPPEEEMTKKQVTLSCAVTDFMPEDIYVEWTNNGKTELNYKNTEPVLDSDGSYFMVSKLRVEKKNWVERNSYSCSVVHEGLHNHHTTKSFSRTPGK
Test: BLI (Octet), biotin antigen on SA probe, Fab in solution
Could you mark each record Fulfilled if its koff falls strictly under 0.0002 s⁻¹, and Not fulfilled if it equals or exceeds it?

Some solved entries appear below for comparison.
[
  {
    "BINDER": "23A11 Fab antibody (Fab, V domains shown, Purified Fab from the mouse Fab phage display library) VH: QVQLQQSGPGLVQPSQSLSITCTVSGFSLTTYAVHWVRQSPGKGLEWLGVIWSVGSTDYNAAFISRLSISKDNSKSQVFFKMNSLQADDTAIYYCARNIYYGNVYAMDYWGQGTSVTVSS VL: DIVLTQSPASLAVSLGQRATISCRASKSVDASGYSFMHWYQQKAGQPPKLLIYLASNLESGVPARFSGRGSGTDFTLNIHPVEEGDAATYYCQHSRELPLTFGAGTKLEIK",
    "DISCRETE LABEL": "Not fulfilled"
  },
  {
    "BINDER": "27A3 Fab antibody (Fab, V domains shown, Purified Fab from the mouse Fab phage display library) VH: EVQLQESGPGLVQPSQSLSITCTVSGFSLTTYAVHWVRQSPGKGLEWLGVIWSTGITDYNADFISRLSISKDNSKSQVFFKMDSLQSDDTAIYFCARNHYYGNLNAMDYWGQGTSVTVSS VL: DIVLTQSPASLAVSLGQRATISCRASKSVSTSGYSFMHWYQQKPGQPPKLLIYLASNLESGVPARFSGSGSGTDFTLNIHPVEEEDAATYYCQHSRELPYTFGGGTKLEIK",
    "DISCRETE LABEL": "Fulfilled"
  }
]

Given 2B12 Fab antibody (Fab, V domains shown, Purified Fab from the mouse Fab phage display library) VH: QVQLQQSGPGLVQPSQSLSITCTVSGFSLTTYAVHWVRQSPGKGLEWLGVIWSTGITDYNAAFISRLSISKDNSKSQVFFKMNSLQSDDIAIYYCARNPYYGNLNAMDYWGQGTSVTVSS VL: DIVLTQSPASLAVSLGQRATISCRASKSVDTSGYSFMHWYQQKPGQPPKLLIYLASNLESGVPARFSGSGSGTDFTLNIHPVEEEDAATYYCQHSRELPLTFGAGTKLELK , is recorded koff strictly lower than 0.0002 s⁻¹?
Fulfilled

Item 3B2 Fab antibody (Fab, V domains shown, Purified Fab from the mouse Fab phage display library) VH: EVQLKQSGPGLVQPSQSLSITCTVSGFSLTTYGVHWVRQSPGKGLEWLGVIWSTGITDYNAAFISRLSISKDNSKSQVFFKMNSLQADDTAIYYCARNSYYGNLYVMDYWGQGTSVTVSS VL: DIVLTQSPASLAVSLGQRATISCRASKSVSASGYNFMHWYQQKPGQPPKLLIYLASNLESGVPARFSGSGSGTDFTLNIHPVEEEDAATYYCQHSRELPLTFGAGTKLELK : koff beneath 0.0002 s⁻¹, strictly?
Not fulfilled

Could you please tell me whether koff recorded for 32D1 Fab antibody (Fab, V domains shown, Purified Fab from the mouse Fab phage display library) VH: EVQLQQSGPELVKPGASLKMSCKASGYTFTDYVIHWVKQKPGQGLEWIGYLHPYNDDTKYNEKFKGKATLTSDKSSSTAYMELNSLTSEDSAVYYCARRGYYDYAWFADWGQGTLVTVSA VL: DIVLTQSPASLAVSLGQRATISCKASKSVSASGYTWMHWYQQKPGQAPKLLIYLASNLESGVPARFSGSGSGTDFTLNIHPVEEEDAATYYCQHSRELPPTFGGGTKLEIK is less than 0.0002 s⁻¹?
Not fulfilled
